Experiment: Relative binding to mu and kappa opioid receptors (ratio of IC50)
Each entry below carries its recorded Selectivity.
// note: answer is a bare numeric in Ratio

The cases that follow already have their Selectivity on record.
CC[C@H](C)[C@H](NC(=O)[C@H](CCCCN)NC(=O)[C@H](CCCN=C(N)N)NC(=O)[C@H](CC(C)C)NC(=O)[C@H](Cc1ccccc1)NC(=O)[C@@H](CC(=O)O)NC(=O)CNC(=O)[C@@H](N)Cc1ccc(O)cc1)C(=O)N[C@@H](CCCN=C(N)N)C(=O)N1CCC[C@@H]1C(=O)N[C@H](CCCCN)C(N)=O 14
CC[C@H](C)[C@H](NC(=O)[C@H](CCCCN)NC(=O)[C@H](CCCN=C(N)N)NC(=O)[C@H](CC(C)C)NC(=O)[C@H](Cc1ccccc1)NC(=O)[C@H](CC(=O)O)NC(=O)CNC(=O)[C@@H](N)Cc1ccc(O)cc1)C(=O)N[C@@H](CCCN=C(N)N)C(=O)N1CCC[C@@H]1C(=O)N[C@H](CCCCN)C(N)=O 7
CC[C@H](C)[C@H](NC(=O)[C@H](CCCN=C(N)N)NC(=O)[C@@H]1CCCCNC(=O)C[C@H](NC(=O)[C@@H](N)Cc2ccc(O)cc2)C(=O)NCC(=O)N[C@H](Cc2ccccc2)C(=O)N[C@@H](CC(C)C)C(=O)N1)C(=O)N[C@@H](CCCN=C(N)N)C(=O)N1CCC[C@@H]1C(=O)N[C@H](CCCCN)C(N)=O 0.03

Here is the next item to consider.
Request: So what's the measured Selectivity for this one? `CC[C@H](C)[C@H](NC(=O)[C@H](CCCN=C(N)N)NC(=O)[C@@H]1CCCCNC(=O)C[C@@H](NC(=O)[C@@H](N)Cc2ccc(O)cc2)C(=O)NCC(=O)N[C@H](Cc2ccccc2)C(=O)N[C@@H](CC(C)C)C(=O)N1)C(=O)N[C@@H](CCCN=C(N)N)C(=O)N1CCC[C@@H]1C(=O)N[C@H](CCCCN)C(N)=O`
Response: 29.8

---

Tested on: Kappa opioid receptor (Cavia porcellus)
Assay: Central (GPB) and Peripheral (GPI) Nervous Systems Selectivity at kappa Opioid Receptor
MEASURED_PARAMETER: Ratio (Ratio)
// note: answer is a bare numeric in Ratio

The cases that follow already have their Ratio on record.
CC[C@H](C)[C@H](NC(=O)[C@H](CCCN=C(N)N)NC(=O)[C@@H]1CCCCNC(=O)C[C@H](NC(=O)[C@@H](N)Cc2ccc(O)cc2)C(=O)NCC(=O)N[C@H](Cc2ccccc2)C(=O)N[C@@H](CC(C)C)C(=O)N1)C(=O)N[C@@H](CCCN=C(N)N)C(=O)N1CCC[C@@H]1C(=O)N[C@H](CCCCN)C(N)=O 5.6
CC[C@H](C)[C@H](NC(=O)[C@H](CCCN=C(N)N)NC(=O)[C@@H]1CCCCNC(=O)C[C@@H](NC(=O)[C@@H](N)Cc2ccc(O)cc2)C(=O)NCC(=O)N[C@H](Cc2ccccc2)C(=O)N[C@@H](CC(C)C)C(=O)N1)C(=O)N[C@@H](CCCN=C(N)N)C(=O)N1CCC[C@@H]1C(=O)N[C@H](CCCCN)C(N)=O 160
CC[C@H](C)[C@H](NC(=O)[C@H](CCCCN)NC(=O)[C@H](CCCN=C(N)N)NC(=O)[C@H](CC(C)C)NC(=O)[C@H](Cc1ccccc1)NC(=O)[C@@H](CC(=O)O)NC(=O)CNC(=O)[C@@H](N)Cc1ccc(O)cc1)C(=O)N[C@@H](CCCN=C(N)N)C(=O)N1CCC[C@@H]1C(=O)N[C@H](CCCCN)C(N)=O 110

Here is the next item to consider.
Request: So what's the measured Ratio for this one? `CC[C@H](C)[C@H](NC(=O)[C@H](CCCCN)NC(=O)[C@H](CCCN=C(N)N)NC(=O)[C@H](CC(C)C)NC(=O)[C@H](Cc1ccccc1)NC(=O)[C@H](CC(=O)O)NC(=O)CNC(=O)[C@@H](N)Cc1ccc(O)cc1)C(=O)N[C@@H](CCCN=C(N)N)C(=O)N1CCC[C@@H]1C(=O)N[C@H](CCCCN)C(N)=O`
Response: 72
